Where do the numbers come from? From the RNAGym collection of RNA variant scans (doi:10.7554/elife.80360).

B1: CPEB3 Ribozyme (parent)
chain: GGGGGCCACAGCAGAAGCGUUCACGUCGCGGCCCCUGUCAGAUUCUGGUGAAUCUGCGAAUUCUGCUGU

variants of: B1; experiment: self-cleavage, relative activity (ratio to wild type); higher = more cleavage; co-transcriptional
experimental readout: self-cleavage
Give a plain numeric answer without units written out.

Some variants with known self-cleavage results, for comparison:
C7U G11U	0.715
C7G A42C	0.198
C18A G47U	0.203
C22G U64A	0.202
U20A C24A	0.203

Consider the additional variant presented here.
Endpoint output: self-cleavage of G1C A52U . Value?
0.201
